tested on: CXCR4; test: Chemotaxis assay, human monocytes toward CXCL12 (CXCR4-mediated); type: cell-based; settings: mean±SE, read-out: IC50 for inhibition of CXCR4-mediated chemotaxis
Assay readout: pIC50
Note on units: pIC50 is unitless, being -log10 of a concentration expressed in mol/L.

IN: // returns reported pIC50 for input CNC[C@H](O)c1cccc(O)c1
OUT: 8.22

====

tested on: AVPR1A heteromerization partners CCR2, CCR8 and CXCR4; assay: Chemotaxis assay, THP-1 cells, AVPR1A heteromerization partners CCR2, CCR8 and CXCR4; assay type: cell-based; conditions: Homo sapiens, FIG. 13A, 13C, read-out: IC50, inhibition of chemotaxis mediated via CCR2, CCR8 and CXCR4
pIC50: −log10 of the molar value.
Assay readout: pIC50

IN: // returns reported pIC50 for input Cc1nc2c([nH]1)-c1ccccc1N(C(=O)c1ccc(NC(=O)c3ccccc3-c3ccccc3)cc1)CC2
OUT: 9.66 to 10.43

====

target: CCR2 (Homo sapiens, UniProt P41597); assay: Chemotaxis assay, human monocytes toward CCL2 (CCR2-mediated); type: cell-based; set-up: host or cells: THP-1; conditions: mean±SE, read-out: IC50 for inhibition of CCR2-mediated chemotaxis
Sequence (P41597 whole entry): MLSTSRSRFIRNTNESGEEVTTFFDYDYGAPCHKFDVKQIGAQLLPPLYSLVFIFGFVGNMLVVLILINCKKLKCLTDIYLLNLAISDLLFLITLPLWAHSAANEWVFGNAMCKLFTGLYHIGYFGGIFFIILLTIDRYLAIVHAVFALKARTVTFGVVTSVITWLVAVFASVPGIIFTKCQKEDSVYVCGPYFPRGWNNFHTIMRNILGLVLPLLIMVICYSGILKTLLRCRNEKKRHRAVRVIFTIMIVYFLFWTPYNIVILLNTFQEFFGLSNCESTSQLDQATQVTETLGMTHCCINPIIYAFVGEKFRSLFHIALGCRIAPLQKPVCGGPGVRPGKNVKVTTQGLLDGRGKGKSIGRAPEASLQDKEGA
Assay readout: pIC50
Note on units: pIC50 is unitless, being -log10 of a concentration expressed in mol/L.

IN: // returns reported pIC50 for input CNC[C@H](O)c1cccc(O)c1
OUT: 7.43
